Provide the recorded AUC for the entries that follow.
Assay: Pharmacokinetic study in Sprague-Dawley rats
Type: in vivo
Details: male, Sprague-Dawley, plasma, iv; rat, 5 mg/kg i.v.; read-out: AUC (converted)
One number for each entry, in ng·h/mL.

compound="COC[C@H](NC(=O)c1cnc(C)s1)C(=O)N[C@@H](COC)C(=O)N[C@@H](Cc1ccccc1)C(=O)[C@@]1(C)CO1 [ONX-0912, reference compound]" property_name=AUC units_text=ng·h/mL result=301

The record that follows has no AUC shown yet.
# return recorded AUC for entry "Cc1ncc(C(=O)N[C@@H](COC(F)F)C(=O)N[C@@H](COC(F)F)C(=O)N[C@@H](Cc2ccccc2)C(=O)[C@@]2(C)CO2)s1"
403

----------
Experiment: Pharmacokinetic study in Sprague-Dawley rats
Assay type: in vivo
Settings: male, Sprague-Dawley, plasma, iv; rat, 5 mg/kg i.v.
PROPERTY NAME: clearance
Just so you know, I need the unit written after the number.

# return recorded clearance for entry COC[C@H](NC(=O)c1cnc(C)s1)C(=O)N[C@@H](COC)C(=O)N[C@@H](Cc1ccccc1)C(=O)[C@@]1(C)CO1 [ONX-0912, reference compound]
273 mL/min/kg

----------
Assay: Pharmacokinetic study in NOD/SCID mice
Assay type: in vivo
Details: plasma, iv, mouse, 5 mg/kg i.v.
PROPERTY NAME: clearance (mL/min/kg)
Give bare numbers, in mL/min/kg.

compound=Cc1ncc(C(=O)N[C@@H](COC(F)F)C(=O)N[C@@H](COC(F)F)C(=O)N[C@@H](Cc2ccccc2)C(=O)[C@@]2(C)CO2)s1 property_name=clearance result=702

The record that follows has no clearance shown yet.
# return recorded clearance for entry COC[C@H](NC(=O)c1cnc(C)s1)C(=O)N[C@@H](COC)C(=O)N[C@@H](Cc1ccccc1)C(=O)[C@@]1(C)CO1 [ONX-0912, reference compound]
1490

----------
Assay: Pharmacokinetic study in NOD/SCID mice
Format: in vivo
Details: plasma, iv, mouse, 5 mg/kg i.v.
Provide the recorded AUC for the entries that follow.
Answers are plain numbers, in ng·h/mL.

compound="Cc1ncc(C(=O)N[C@@H](COC(F)F)C(=O)N[C@@H](COC(F)F)C(=O)N[C@@H](Cc2ccccc2)C(=O)[C@@]2(C)CO2)s1 [FV-162]" property_name=AUC units_text=ng·h/mL result=111

# return recorded AUC for entry COC[C@H](NC(=O)c1cnc(C)s1)C(=O)N[C@@H](COC)C(=O)N[C@@H](Cc1ccccc1)C(=O)[C@@]1(C)CO1 [ONX-0912, reference compound]
54.1

----------
Assay: Pharmacokinetic study in NOD/SCID mice
Assay type: in vivo
Conditions: plasma, po, mouse, 25 mg/kg p.o.
Provide the recorded Cmax for the entries that follow.
One number for each entry, in ng/mL.

compound="COC[C@H](NC(=O)c1cnc(C)s1)C(=O)N[C@@H](COC)C(=O)N[C@@H](Cc1ccccc1)C(=O)[C@@]1(C)CO1 [ONX-0912, reference compound]" result=38

The record that follows has no Cmax shown yet.
# return recorded Cmax for entry "Cc1ncc(C(=O)N[C@@H](COC(F)F)C(=O)N[C@@H](COC(F)F)C(=O)N[C@@H](Cc2ccccc2)C(=O)[C@@]2(C)CO2)s1"
21

----------
Provide the recorded Tmax for the entries that follow.
Test: Pharmacokinetic study in Sprague-Dawley rats
Format: in vivo
Conditions: male, Sprague-Dawley, plasma, po; rat, 40 mg/kg p.o.
Answers are plain numbers, in min.

molecule=Cc1ncc(C(=O)N[C@@H](COC(F)F)C(=O)N[C@@H](COC(F)F)C(=O)N[C@@H](Cc2ccccc2)C(=O)[C@@]2(C)CO2)s1 property_name=Tmax result=15

The record that follows has no Tmax shown yet.
# return recorded Tmax for entry COC[C@H](NC(=O)c1cnc(C)s1)C(=O)N[C@@H](COC)C(=O)N[C@@H](Cc1ccccc1)C(=O)[C@@]1(C)CO1 [ONX-0912, reference compound]
5

Reference source: paper PMC4650734
